# GLC values compiled below
# Species on record: Rattus norvegicus
# assay.protocol: Open TG-GATES - Regimen: Daily Repeat
# Format: toxicity, organism-based, Sprague-Dawley
# Design: regimen Daily Repeat, gender Male, age 6 weeks
# condition.info: in vivo, po, 1000 mg/kg, […], tissue Plasma, route gavage, dose level High, time 7 day

Below: 3 compounds and their reported GLC.
compound: CC(C)(S)[C@@H](N)C(=O)O
GLC: 169.2 mg/dL
//
compound: O=C(N[C@H](CO)[C@H](O)c1ccc([N+](=O)[O-])cc1)C(Cl)Cl
GLC: 179.4 mg/dL
//
compound: CCN1CCCC1CNC(=O)c1cc(S(N)(=O)=O)ccc1OC (centres undefined) [SULPIRIDE]
GLC: 171.6 mg/dL

Asked: Name the reported GLC value associated with the compound `O=C(O)c1cccnc1`
Given back: 196.6 mg/dL

====

# Species: Rattus norvegicus
# assay.protocol: Open TG-GATES - Regimen: Single
# Type: toxicity, organism-based, Sprague-Dawley
# Design: regimen Single, gender Male, age 6 weeks
# condition.info: in vivo, po, 0 mg/kg, 9 h, tissue Kidney, route gavage, dose level Control
measure.name: KIDNEY_L (g)
Lab book: enter the figure in g, no units written.

Some compounds with known KIDNEY_L results, for comparison:
compound: CC(=O)Oc1cc(C(C)C)c(OCCN(C)C)cc1C
KIDNEY_L / g: 1
--
compound: Nc1nc(N)c2nc(-c3ccccc3)c(N)nc2n1
KIDNEY_L / g: 1
--
compound: CCc1oc2ccccc2c1C(=O)c1cc(I)c(O)c(I)c1
KIDNEY_L / g: 1
--
compound: CCC(C)(C)C(=O)O[C@H]1C[C@@H](C)C=C2C=C[C@H](C)[C@H](CC[C@@H]3C[C@@H](O)CC(=O)O3)[C@H]21
KIDNEY_L / g: 0.9

Asked: Please report the recorded KIDNEY_L for CC(C)C(=O)Nc1ccc([N+](=O)[O-])c(C(F)(F)F)c1 [FLUTAMIDE] .
Given back: 1

Asked: Then this compound: CCN1CCCC1CNC(=O)c1cc(S(N)(=O)=O)ccc1OC (centres undefined) [SULPIRIDE]
Given back: 0.9

Asked: Ok, now `C#C[C@]1(O)CC[C@H]2[C@@H]3CCc4cc(O)ccc4[C@H]3CC[C@@]21C`
Given back: 0.9

Asked: And what about the compound `CN1C(=O)OC(C)(C)C1=O` ?
Given back: 0.9

Asked: Try the compound `CC(C)(S)[C@@H](N)C(=O)O`
Given back: 0.9

====

# Organism: Rattus norvegicus
# assay.protocol: Open TG-GATES - Regimen: Daily Repeat
# Format: toxicity, organism-based, Sprague-Dawley
# Set-up: regimen Daily Repeat, gender Male, age 6 weeks
# condition.info: in vivo, po, 0 mg/kg, […], tissue Blood, route gavage, dose level Control, time 14 day
measure.name: APTT (s)
Please state the figure in s; there is no need to write the unit.

Consider the worked cases shown below.
molecule: CCSCC[C@H](N)C(=O)O [ETHIONINE]
APTT (s): 18.9
--
molecule: C#C[C@]1(O)CC[C@H]2[C@@H]3CCc4cc(O)ccc4[C@H]3CC[C@@]21C [ETHINYL ESTRADIOL]
APTT (s): 16.7
--
molecule: Oc1ncnc2[nH]ncc12 [ALLOPURINOL]
APTT (s): 16.9

Here's the next entry for you.
Asked: Query (molecule): CCc1oc2ccccc2c1C(=O)c1cc(I)c(O)c(I)c1 [BENZIODARONE] ; field requested: APTT
Given back: 17.1
